Each entry below carries its recorded pIC50.
assay: Inhibition of Dengue virus 2 NS2B-NS3 protease expressed in Escherichia coli using Bz-Nle-Lys-Arg-Arg-AMC as substrate measured every 90 sec upto 30 mins by spectrofluorometry; set-up: species or system dengue virus type 2
Lab note — pIC50 values are minus log10 of concentrations in M.

- smilesStr: "O=C(Cn1cc(COc2cccc(NC(=O)Cn3sc4ccccc4c3=O)c2)nn1)Nc1ccc(Oc2ccccc2)cc1"
  propertyMeasured: "pIC50"
  measuredValue: 5.35

Shift focus to the following entry.
Which pIC50 reading was recorded for the compound O=C(Cn1sc2ccccc2c1=O)NCc1cn(CC(=O)Nc2ccc(Oc3ccccc3)cc2)nn1 ? 5.31

---

system: dengue virus type 2; assay: Inhibition of Dengue virus 2 NS2B-NS3 protease expressed in Escherichia coli using Bz-Nle-Lys-Arg-Arg-AMC as substrate at 25 uM measured every 90 sec upto 30 mins by spectrofluorometry
Active and inactive are the calls of the source. The rule behind the calls is not given here.
propertyMeasured: inhibition

Here are 8 compounds together with their reported answers.
- smilesStr: "O=C(O)Cn1cc(CNC(=O)Cn2sc3ccccc3c2=O)nn1"
  inhibition: "inactive"
- smilesStr: "O=C(Cn1cc(COc2cccc(NC(=O)Cn3sc4ccccc4c3=O)c2)nn1)Nc1ccccc1"
  inhibition: "Active"
- smilesStr: "O=C(Cn1sc2ccccc2c1=O)NCc1cn(CC(=O)c2ccccc2)nn1"
  inhibition: "inactive"
- smilesStr: "O=C(Cn1sc2ccccc2c1=O)Nc1cccc(OCc2cn(CC(=O)c3ccccc3)nn2)c1"
  inhibition: "Active"
- smilesStr: "O=C(Cn1sc2ccccc2c1=O)NCc1cn(CSc2ccccc2)nn1"
  inhibition: "inactive"
- smilesStr: "COc1ccc(Cn2cc(CNC(=O)Cn3sc4ccccc4c3=O)nn2)cc1"
  inhibition: "inactive"
- smilesStr: "O=C(Cn1sc2ccccc2c1=O)NCc1cn(CC(=O)Nc2ccccc2Oc2ccccc2)nn1"
  inhibition: "inactive"
- smilesStr: "O=C(Cn1cc(COc2cccc(NC(=O)Cn3sc4ccccc4c3=O)c2)nn1)Nc1ccc(Oc2ccccc2)cc1"
  inhibition: "Active"

Shift focus to the following entry.
Which inhibition reading was recorded for the compound O=C(Cn1sc2ccccc2c1=O)NCc1cn(Cc2ccccc2)nn1 ? inactive

---

assay: Inhibition of Dengue virus 2 NS2B-NS3 protease expressed in Escherichia coli using Bz-Nle-Lys-Arg-Arg-AMC as substrate measured every 90 sec upto 30 mins by spectrofluorometry; design: species or system dengue virus type 2
propertyMeasured: pIC50
Lab note — pIC50 values are minus log10 of concentrations in M.

- smilesStr: "O=C(Cn1cc(COc2cccc(NC(=O)Cn3sc4ccccc4c3=O)c2)nn1)Nc1cccc(Oc2ccccc2)c1"
  propertyMeasured: "pIC50"
  measuredValue: 5.34
- smilesStr: "O=C(Cn1cc(COc2cccc(NC(=O)Cn3sc4ccccc4c3=O)c2)nn1)Nc1ccccc1"
  propertyMeasured: "pIC50"
  measuredValue: 4.87
- smilesStr: "O=C(Cn1sc2ccccc2c1=O)Nc1cccc(OCc2cn(CC(=O)Nc3ccccc3Oc3ccccc3)nn2)c1"
  propertyMeasured: "pIC50"
  measuredValue: 5.46

Shift focus to the following entry.
Which pIC50 reading was recorded for the molecule O=C(Cn1sc2ccccc2c1=O)Nc1cccc(OCc2cn(CC(=O)c3ccccc3)nn2)c1 ? 5.21

---

system: dengue virus type 2; experiment: Inhibition of Dengue virus 2 NS2B-NS3 protease expressed in Escherichia coli using Bz-Nle-Lys-Arg-Arg-AMC as substrate at 25 uM measured every 90 sec upto 30 mins by spectrofluorometry
The source made the active and inactive calls. No cut-off for these calls is given here.
Assign a class; possible classes are TRUE = active, FALSE = inactive

Reference set, count: 3
- smilesStr: "O=C(Cn1sc2ccccc2c1=O)NCc1cn(Cc2ccc(F)cc2)nn1"
  groupLabel: "FALSE"
- smilesStr: "CC(C)(C)OC(=O)Cn1cc(CNC(=O)Cn2sc3ccccc3c2=O)nn1"
  groupLabel: "FALSE"
- smilesStr: "O=C(Cn1sc2ccccc2c1=O)NCc1cn(CCCc2ccccc2)nn1"
  groupLabel: "FALSE"

Hi, do you know how COC(=O)c1cccc(Cn2cc(CNC(=O)Cn3sc4ccccc4c3=O)nn2)c1 came out in this test? FALSE

Hi, do you know how O=C(Cn1sc2ccccc2c1=O)NCc1cn(CC(=O)Nc2ccc(Oc3ccccc3)cc2)nn1 came out in this test? TRUE

Hi, do you know how COC(=O)c1cccc(Cn2cc(COc3cccc(NC(=O)Cn4sc5ccccc5c4=O)c3)nn2)c1 came out in this test? TRUE

Hi, do you know how O=C(Cn1sc2ccccc2c1=O)NCc1cn(CCc2ccccc2)nn1 came out in this test? FALSE

Hi, do you know how O=C(Cn1sc2ccccc2c1=O)NCc1cn(CC(=O)Nc2ccccc2)nn1 came out in this test? FALSE

Hi, do you know how O=C(Cn1sc2ccccc2c1=O)Nc1cccc(OCc2cn(CC(=O)Nc3ccccc3Oc3ccccc3)nn2)c1 came out in this test? TRUE

Hi, do you know how O=C(Cn1cc(COc2cccc(NC(=O)Cn3sc4ccccc4c3=O)c2)nn1)Nc1cccc(Oc2ccccc2)c1 came out in this test? TRUE

Hi, do you know how O=C(Cn1sc2ccccc2c1=O)NCc1cn(Cc2cccc(F)c2)nn1 came out in this test? FALSE

Hi, do you know how O=C(Cn1sc2ccccc2c1=O)NCc1cn(CCOc2ccccc2)nn1 came out in this test? FALSE

Hi, do you know how O=C(Cn1sc2ccccc2c1=O)NCc1cn(CC(=O)Nc2cccc(Oc3ccccc3)c2)nn1 came out in this test? TRUE
